# target_of_assay: human A2A AR (Homo sapiens, UniProt P29274)
# Sequence (P29274 whole entry): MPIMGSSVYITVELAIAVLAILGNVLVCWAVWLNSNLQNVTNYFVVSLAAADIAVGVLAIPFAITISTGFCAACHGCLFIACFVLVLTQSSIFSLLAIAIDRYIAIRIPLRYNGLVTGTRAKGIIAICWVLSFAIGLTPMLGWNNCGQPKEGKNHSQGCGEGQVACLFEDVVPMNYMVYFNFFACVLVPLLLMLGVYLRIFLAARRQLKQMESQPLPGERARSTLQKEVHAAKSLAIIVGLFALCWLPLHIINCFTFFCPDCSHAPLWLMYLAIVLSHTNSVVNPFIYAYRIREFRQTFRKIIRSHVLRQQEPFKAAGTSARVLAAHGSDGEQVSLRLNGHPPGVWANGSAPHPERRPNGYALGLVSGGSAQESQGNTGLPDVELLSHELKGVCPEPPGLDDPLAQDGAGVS
# run_description: cAMP functional assay in CHO-K1/ADORA2A/Gα15 cells (NECA-stimulated, HTRF);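 further: inhibition of NECA-driven intracellular cAMP build-up in the A2A-expressing cells, quantified with cAMP-d2 plus Eu3+-labelled anti-cAMP detection reagent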
# Type: cell-based
pIC50: −log10 of the molar value.

compound	pIC50
Cc1c(C#N)cccc1-c1cc(-c2cn(Cc3cccc(C(C)(C)O)n3)nn2)nc(N)n1 [AB928, reference compound]	8.56

* * *

Measured IC50 of individual entries
# target_of_assay: UniProt P29274
# run_description: cAMP functional assay in CHO-K1/ADORA2A/Gα15 cells (NECA-stimulated, HTRF)
# Format: cell-based
# assay_conditions: CHO cells expressing hA2A AR; mean ± SEM; read-out: cAMP IC50 hA2A AR

molecule	IC50 [µM]
Cc1c(C#N)cccc1-c1cc(-c2cn(Cc3cccc(C#N)n3)nn2)nc(N)n1 [Compound 7f]	0.024
Cc1ccc(-c2cc(-c3cn(Cc4cccc(C(C)(C)O)n4)nn3)nc(N)n2)o1 [Compound 17]	0.321
CC(C)(O)c1cccc(Cn2cc(-c3cc(-c4cccc(CF)c4)nc(N)n3)nn2)n1 [Compound 22]	0.0672
Cc1c(C#N)cccc1-c1cc(-c2cn(Cc3cccc(C(N)=O)n3)nn2)nc(N)n1 [Compound 7i]	0.00601
